- Test system: MV4;11 cells
- assaySummary: Cell viability assay
- Type: cell-based
- measurementContext: Homo sapiens, MV4-11, 96 h, read-out: IC50 cell growth inhibition MV4
observedProperty: pIC50
FYI, pIC50 means -log10 of a concentration in mol per litre.

Answer with reported pIC50 of COc1cc2c(cc1-c1c(C)noc1C)[nH]c1ccnc(-c3c(-c4ccccc4)n[nH]c3C)c12
7.47

----------
- system: BRD4 BD2 (Homo sapiens)
- assaySummary: Competitive fluorescence polarization
observedProperty: Ki (µM)
Value expressed in µM; do not type the unit.

Answer with reported Ki of COc1cc2c(cc1-c1c(C)noc1C)[nH]c1ccnc(-c3c(-c4ccccc4)n[nH]c3C)c12 [Compound 19]
0.038

----------
- system: BRD3 BD1 (Homo sapiens, UniProt Q15059)
- Sequence (Q15059 24-144): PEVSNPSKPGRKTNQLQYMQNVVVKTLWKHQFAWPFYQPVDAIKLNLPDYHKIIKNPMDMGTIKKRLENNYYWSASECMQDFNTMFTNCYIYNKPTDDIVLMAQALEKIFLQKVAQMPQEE
- assaySummary: Competitive fluorescence polarization
observedProperty: Ki (nM)
Value expressed in nM; do not type the unit.

Answer with reported Ki of COc1cc2c(cc1-c1c(C)noc1C)[nH]c1ccnc(-c3c(-c4ccccc4)n[nH]c3C)c12 [Compound 19]
10.4

----------
- system: BRD4 BD2 (Homo sapiens, UniProt O60885)
- assaySummary: Competitive fluorescence polarization
observedProperty: pIC50
FYI, pIC50 means -log10 of a concentration in mol per litre.

Answer with reported pIC50 of COc1cc2c(cc1-c1c(C)noc1C)[nH]c1ccnc(-c3c(-c4ccccc4)n[nH]c3C)c12
6.89

----------
- system: BRD3 BD2 (Homo sapiens, UniProt Q15059)
- Sequence (Q15059 306-417): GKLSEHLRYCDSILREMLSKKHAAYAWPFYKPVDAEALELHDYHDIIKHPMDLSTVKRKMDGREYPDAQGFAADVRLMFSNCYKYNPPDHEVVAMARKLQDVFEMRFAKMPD
- assaySummary: Competitive fluorescence polarization
observedProperty: Ki (nM)
Value expressed in nM; do not type the unit.

Answer with reported Ki of COc1cc2c(cc1-c1c(C)noc1C)[nH]c1ccnc(-c3c(-c4ccccc4)n[nH]c3C)c12
9.4
